assay: Cytotoxicity against rat H9c2 cells assessed as inhibition of cell viability measured after 24 hrs by WST-1 assay; type: toxicity, cell-based
I'd be grateful if you could share measured IC50 at 24 h for these entries.
The response must be a number in µM with no trailing unit.

Lookup: I'd like to know its IC50 at 24 h. The molecule in question is `CCOC(=O)COc1cc(OC)cc2c1[n+]([O-])c1ccccc1[n+]2[O-]`
Found: 19

Lookup: For `COc1cc(O)c2c(c1)[n+]([O-])c1ccccc1[n+]2[O-]` , what is its reported IC50 at 24 h?
Found: 81

Lookup: Can you look up the measured IC50 at 24 h of `COc1cc(OC(C)=O)c2c(c1)[n+]([O-])c1ccccc1[n+]2[O-]` for me?
Found: 55

Lookup: Give the measured IC50 at 24 h of `COc1cccc2c1[n+]([O-])c1cccc(O)c1[n+]2[O-]` .
Found: 46

Lookup: Please look up its IC50 at 24 h: `CCOc1cc(O)c2c(c1)[n+]([O-])c1ccccc1[n+]2[O-]`
Found: 103

Lookup: Quick check: IC50 at 24 h of `COc1cc(OC)c2c(c1)[n+]([O-])c1ccccc1[n+]2[O-]` ?
Found: 108

Lookup: Quick one: IC50 at 24 h for `COc1cccc2c1[n+]([O-])c1ccccc1[n+]2[O-]` ?
Found: 12

Lookup: Recorded IC50 at 24 h for `CCOC(=O)COc1cc(O)c2c(c1)[n+]([O-])c1ccccc1[n+]2[O-]` , please?
Found: 89
